molecular target: Factor Xa (Homo sapiens, UniProt P00742)
Sequence (P00742 235-488 limits assumed): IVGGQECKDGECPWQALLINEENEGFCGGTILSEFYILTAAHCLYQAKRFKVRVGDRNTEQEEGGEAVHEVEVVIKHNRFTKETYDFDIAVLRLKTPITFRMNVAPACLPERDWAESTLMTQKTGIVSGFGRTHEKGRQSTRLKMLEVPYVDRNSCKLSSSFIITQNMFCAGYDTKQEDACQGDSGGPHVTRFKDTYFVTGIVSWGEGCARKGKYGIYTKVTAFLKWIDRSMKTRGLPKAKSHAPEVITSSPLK
Sequence (P00742 41-179 limits assumed): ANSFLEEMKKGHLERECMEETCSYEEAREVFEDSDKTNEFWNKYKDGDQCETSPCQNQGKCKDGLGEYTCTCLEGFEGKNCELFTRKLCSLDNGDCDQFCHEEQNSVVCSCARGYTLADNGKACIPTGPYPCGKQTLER
pKi: −log10 of the molar value.
Quick list: pKi per entry.

| compound | target-under-test | pKi |
| --- | --- | --- |
| CN[C@H](Cc1ccccc1)C(=O)N1CCC[C@H]1C(=O)N[C@H](C=O)CCCN=C(N)N [Efegatran] | Factor Xa (Homo sapiens, UniProt P00742) | 4.04 |
| CC1CNc2c(cccc2S(=O)(=O)N[C@@H](CCCNC(=N)N)C(=O)N2CC[C@@H](C)C[C@@H]2C(=O)O)C1 (stereo partly drawn) [Argatroban] | Factor Xa (Homo sapiens, UniProt P00742) | < 3.60 |
| c1ccc2c(NC3CCCC3)nc(Nc3ccncc3)nc2c1 [JJ1] | Factor Xa (Homo sapiens, UniProt P00742) | < 3.60 |

----------
biological target: Protein Ca (Homo sapiens); construct: thrombin versus trypsin, factor Xa, elastase, plasmin, protein Ca, streptokinase, tPA, and urokinase; test: Chromogenic substrate assay, Ki (Dixon); format: biochemical; conditions: Protein Ca
Sequence (P04070 212-450 limits assumed): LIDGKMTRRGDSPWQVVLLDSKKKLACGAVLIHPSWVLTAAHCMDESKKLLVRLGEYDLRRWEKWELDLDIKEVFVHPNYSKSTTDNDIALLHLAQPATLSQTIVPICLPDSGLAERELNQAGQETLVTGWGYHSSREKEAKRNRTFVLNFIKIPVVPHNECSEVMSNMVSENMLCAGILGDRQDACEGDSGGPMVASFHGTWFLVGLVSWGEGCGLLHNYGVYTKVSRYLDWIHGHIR
Sequence (P04070 43-197 limits assumed): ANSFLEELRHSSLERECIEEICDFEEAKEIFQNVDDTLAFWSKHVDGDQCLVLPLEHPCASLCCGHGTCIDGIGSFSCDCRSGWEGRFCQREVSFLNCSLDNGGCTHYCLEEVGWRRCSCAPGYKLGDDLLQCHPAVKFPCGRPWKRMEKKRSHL
Reported Ki is given for each of the following molecules.

| molecule | Ki |
| --- | --- |
| c1ccc2c(NC3CCCC3)nc(Nc3ccncc3)nc2c1 | > 250 µM |
| CN[C@H](Cc1ccccc1)C(=O)N1CCC[C@H]1C(=O)N[C@H](C=O)CCCN=C(N)N | 1.2 µM |
| CC1CNc2c(cccc2S(=O)(=O)N[C@@H](CCCNC(=N)N)C(=O)N2CC[C@@H](C)C[C@@H]2C(=O)O)C1 (stereo partly drawn) | > 250 µM |

----------
molecular target: Factor XIa (Homo sapiens, UniProt P03951)
Sequence (P03951 388-625 limits assumed): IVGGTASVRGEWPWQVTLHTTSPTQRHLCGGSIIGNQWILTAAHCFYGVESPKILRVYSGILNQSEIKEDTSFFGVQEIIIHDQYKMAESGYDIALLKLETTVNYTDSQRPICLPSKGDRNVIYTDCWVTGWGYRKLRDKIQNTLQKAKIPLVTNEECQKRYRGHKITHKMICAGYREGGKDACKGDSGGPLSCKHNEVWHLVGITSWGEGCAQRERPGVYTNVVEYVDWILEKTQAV
Sequence (P03951 19-387 limits assumed): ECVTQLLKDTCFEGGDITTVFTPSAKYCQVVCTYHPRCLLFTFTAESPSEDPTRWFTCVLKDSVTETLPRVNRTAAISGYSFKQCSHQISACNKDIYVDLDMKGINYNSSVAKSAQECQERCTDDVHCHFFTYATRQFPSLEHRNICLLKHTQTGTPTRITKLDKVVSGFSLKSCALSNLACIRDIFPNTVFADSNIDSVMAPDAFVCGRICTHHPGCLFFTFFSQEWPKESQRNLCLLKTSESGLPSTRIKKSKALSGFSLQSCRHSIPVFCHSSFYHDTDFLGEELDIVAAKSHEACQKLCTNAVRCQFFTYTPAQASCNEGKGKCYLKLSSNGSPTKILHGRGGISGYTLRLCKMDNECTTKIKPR
pKi: −log10 of the molar value.

| chem-smiles | pKi |
| --- | --- |
| c1ccc2c(NC3CCCC3)nc(Nc3ccncc3)nc2c1 | < 3.60 |

----------
molecular target: human α-thrombin (Homo sapiens)
pKi: −log10 of the molar value.

| chem-smiles | pKi |
| --- | --- |
| c1ccc2c(NC3CCCC3)nc(Nc3ccncc3)nc2c1 | 7.72 |
| CN[C@H](Cc1ccccc1)C(=O)N1CCC[C@H]1C(=O)N[C@H](C=O)CCCN=C(N)N | 7.77 |

----------
experiment: Pharmacokinetics after i.v. injection; format: in vivo; details: mouse, plasma, iv, male C57BL/6 mice, 2 mg/kg, fasting
measured-parameter: AUC

| chem-smiles | result |
| --- | --- |
| c1ccc2c(NC3CCCC3)nc(Nc3ccncc3)nc2c1 | 6100 ng·h/mL |

----------
Here's what we have: Ki numbers for Plasmin (Homo sapiens).

| molecule | Ki |
| --- | --- |
| CC1CNc2c(cccc2S(=O)(=O)N[C@@H](CCCNC(=N)N)C(=O)N2CC[C@@H](C)C[C@@H]2C(=O)O)C1 (stereo partly drawn) [Argatroban] | > 250 µM |
| c1ccc2c(NC3CCCC3)nc(Nc3ccncc3)nc2c1 [JJ1] | > 250 µM |
| CN[C@H](Cc1ccccc1)C(=O)N1CCC[C@H]1C(=O)N[C@H](C=O)CCCN=C(N)N [Efegatran] | 0.48 µM |

----------
biological target: clot-bound thrombin (Homo sapiens, UniProt P00734); construct: Fibrin clots were formed by recalcification of citrated plasma and washed extensively; assay: Clot-bound thrombin assay, FPA generation (ELISA); details: 60 min of incubation, FPA by ELISA; read-out: IC50, inhibition of FPA generation by clot-bound thrombin

| compound | IC50 [µM] |
| --- | --- |
| c1ccc2c(NC3CCCC3)nc(Nc3ccncc3)nc2c1 [JJ1] | 2.45 |

----------
The next entries give measured pKi for Urokinase (Homo sapiens, UniProt P00749).
pKi: −log10 of the molar value.
measured-parameter: pKi

| compound | target-under-test | measured-parameter | result |
| --- | --- | --- | --- |
| CN[C@H](Cc1ccccc1)C(=O)N1CCC[C@H]1C(=O)N[C@H](C=O)CCCN=C(N)N | Urokinase (Homo sapiens, UniProt P00749) | pKi | 5.60 |
| c1ccc2c(NC3CCCC3)nc(Nc3ccncc3)nc2c1 | Urokinase (Homo sapiens, UniProt P00749) | pKi | < 3.60 |
| CC1CNc2c(cccc2S(=O)(=O)N[C@@H](CCCNC(=N)N)C(=O)N2CC[C@@H](C)C[C@@H]2C(=O)O)C1 (stereo partly drawn) | Urokinase (Homo sapiens, UniProt P00749) | pKi | < 3.60 |

----------
# Ki per entry
target: Trypsin; test: Chromogenic substrate assay, Ki (Dixon); conditions: Trypsin; mean ± SD (n = 5)
measured-parameter: Ki (µM)

| compound | target-under-test | measured-parameter | qualifier | numeric-value |
| --- | --- | --- | --- | --- |
| CC1CNc2c(cccc2S(=O)(=O)N[C@@H](CCCNC(=N)N)C(=O)N2CC[C@@H](C)C[C@@H]2C(=O)O)C1 (stereo partly drawn) [Argatroban] | Trypsin | Ki | = | 4.2 |
| CN[C@H](Cc1ccccc1)C(=O)N1CCC[C@H]1C(=O)N[C@H](C=O)CCCN=C(N)N [Efegatran] | Trypsin | Ki | = | 0.011 |
| c1ccc2c(NC3CCCC3)nc(Nc3ccncc3)nc2c1 [JJ1] | Trypsin | Ki | > | 250 |
